experiment: soluble on expression in E. coli; label from the status in PepcDB or PDB records
Measured Property: soluble on expression in E. coli

MYQTKITGNRLYHTVSKGYGDSVTLFGKTDQGETPMSLLVIALSSCVTMCVQGFYHRQFQQDTLAVSVEASYEEEVFELLVRIDDVLDDKKKADLLAYIGTYCRVKQLLKPEVTVTITLEGLSHV    not soluble
MAETDPKSVQDLTAVVQTLLQQMQDKFQTMSDQIIGRIDEMSTRIDDLEKNIADLMTQAGVEEIEGENKVKEGDAS    soluble
MAHHHHHHMTNRGVVNAEELRGAVCAIVSRYQKTPQRRLLVCVAGRPGSGKTTIANILAEEARELLRKVSSDPRDHAENAVVVMPMDGYHLYRKTLHAMPNREEAIARRGAEWTFDARKLCRDLQAIRLPSETADKKGAPLYDDVFVPSFDHSVGDPKERDICVSGSAAIVIVEGNYLLYRGTPTWAEVNRCFDMGVFQACPAATCARRLCRRHMAAWGISEAEAMVRATGSDAMNGDLVETTGKNADIVLHSIESSI    soluble
MLHEIPKEEILEKLKNIGAKKVLIQSPEGLRREAEELAEFLEKNEIEVILHGEINYGACDPADHEARLLGCDALIHLGHSFMMLSLEVPTIFVPAFAKVNVVEALKKNLHEIKKLGKKIIVTTTAQHIHQLERAIEYLKSQGFEPVVGRGDNRVSWPSQVLGCNFSVAKVEGDGILFIGSGTFHPLGLALATGKRVLAVNPYSGDCQWINELAERFIRKRWAQIAKAMDAKRFGVVISTKRGQLRLNEAKRIIKLLKDHGREAKLIAMNDISYSKLEGFSFDAYVIVACPRVPIDDYENWRKPVLTPREVEILLGLREEYIFDEIPGGVREKDEPLGISLHSTRLEHHHHHH    not soluble

---

assay: soluble on expression in E. coli; label from the status in PepcDB or PDB records
Measured Property: soluble on expression in E. coli

MNVMMQKVHGSENDFFLLDETQFERSLTAEEIEQLRIQLCSRETGLLAGADGLLLVGEGTHGTSNARMRVINSDGSEASMCGNGLRTVARYLAEKNQEKSFTVETMFADLKVRQAPNLAEEVATYQVEISPVSFEAVTIPMHLGVQTLIDEIVPALSNTIRFTAVAVPNPHLVAFVDHETLNGPEFERIATYVNNENPYFPEGINVSFVEILGKNQLFVRTYERGVGFTSACGTAMCASSLLYTLLKDGVFYEEITVKNTGGMVKTVVHETSDGSYWMELIGNATITHLIEGSLTDLLNGAFEKITITETNEQKHYQEFLQTLSQK    not soluble
MSNIYDWSLKADENAHSDNIINWAEGQPPSSVNDSARAMMQRVREYLADNGGSLDSTFIVNAEDKTTSIIVTTASPIEEYKNDIIIRFKAGGVNVGTTTVIVNNIEEKLLYKATNAGVTPLEGGELQRDAIYEMVYNKDVSMEDHGGWYLLNPTPLPPPKIETFPSGFIATFAMQEVPSGWLLCDGAVYERKDYPQLFKAIGDKWGKDSDTTFKVPDFRGMFLRGFDDGRGLDAGRQFADQQHDSIRSHTHIGTIEEAGEHTHKFQYYGVGWDSGDIGRRNPFYYRQSSTGVTQSAGAHTHDISLSPTGEAETRPVNTTVVYAIKS    not soluble

---

assay: soluble on expression in E. coli; label from the status in PepcDB or PDB records
Measured Property: soluble on expression in E. coli

MIWIINISWMHSIFDFISMLINRNHFSKWSISNGRHVSFCNWVFTYTNICSKSFNYRRRSCFKNISISYPFCRIHSIFNKFFTYFIISNCSCPTHRLFCIWRSLFTRSLEHHHHHH    not soluble
MGSDKIHHHHHHMHEHFMTPPPLSVTGKPAIRIGCAGWGIPPQHAALFPPGGGHLERYARLFDTVEIDSSFYRPHQHKTYVRWADTVPDSFRFWVKTPREITHQRRLLECEDSLLRFLEEISGLGYKLGGILVQLPPSLALDVPSAQAFFTLLRQHYAGVAACEPRHASWFSMQGEKLLQDFRLARVAADPAKFPTAGTPGGDTGFSYYRLHGAPEIYYSSYPEAYLRQLAHTLQASIGPAWCIFDNTARGGATANAWDIMRLLDKTMHQD    not soluble
MSLRVENLRSSTYRNGPTGLPNRARFSEDLDAVLLQRTADSAATAIAVDLCGSDYFRDMVKALGWDYADGYVALAYKRLISKLPAGTALYRLDTTTFAFMVTTADPLRLSALCSKISKGFVAPLEHQGIPHTAVASIGAVLLETSYGAADTLRSLTTSVDVAREHCLTWSLYEREGHHHHHH    not soluble
MEAKTMKDMQKEVDAYIGQFKEGYFSPLAMMARLTEEMGELAREVNHYYGEKPKKTTEKERSIEEELGDVLFVMICMANSLNIDLETAHNIVMNKFNTRDKDRWTRIDEGEKE    not soluble

# input sequence: `MSLKVVIGYLALDDWEFESLFPTIEWKYLTHINASFARVKADGTLNINPVRKRIESVRETAHKHNVKILISLAKNSPGEFTTAINDPKARKELIQQIIAFTKEYKLDGFDIDYEEYDNWDKNFPSLLVFARGLYLAKEKNMLMTCAVNSRWLNYGTEWEQYFDYINLMSYDRGAFTDKPVQHASYDDFVKDLKYWNEQCRASKSKIVGGLPFYGYSWEESLQGAVDDVRGIRYSGILKHLGNEAADKDNIGKTYYNGRPTIANKCKFIKENDYAGVMIWQLFQDAHNDNYDLKLINVVGREMMEEGHHHHHH` ; wanted: its soluble on expression in E. coli
# output soluble

# input sequence: `MTKLVIDTVGPATSVQDAGRHGAQRYGLPPSGAMDRLSLAAANVLVGNSAFAAAIELGPLGAKLSVRDGAVRLALTGAERPAALDGQPLAFNESFTLAEGQILTLGVARGGVFSYLGIEGGVGGEPMFGSLAVNARAGLGSPYPRPLQAGDAIAVKSAAPSVERRLDLPEQQDTPIRVVLGPQDDEFGAAVEIFLTGEWTMSATSDRMGYRLDGPQISHLHGHNIVSDGTVDGSIQVPGSGQPIVLMPDRGTSGGYPKIATVISADLGRLAQRQPGRPFRFQAVSVEEAQDAYRTMAKLIRSLPDLLRDAQHAIIDLDALLSANVAGTAIDALAAELEHHHHHH` ; wanted: its soluble on expression in E. coli
# output not soluble

# input sequence: `SDPDADRVGIACKNDKGEWVLINGNQTCLMYLYYIITQYNKLGKMTGNEFCVKTIVTTELIKKIADKNHIEMLDCYTGFKWIAREIRLREGKKKYIGGGEESYGFLAEDFVRDKDAVSACCLIAEVAAWAKDNGKTLYQLLMDIYVEYGFSKE` ; wanted: its soluble on expression in E. coli
# output not soluble

# input sequence: `MGSDKIHHHHHHMTFVKKALSPDEYGEVLFQHDWMRGEPSDVVCELLAKSERLFFRQDDVLFREGDKMQHCLLVETGKLQAFRHTYGGDEKIFGQFERGEFVAIAAVFMDHGRFPMNIRALSDGHTLMIPRQDIHQFCLQRPELALRLLNYLGKKLYSTINQIDWLTSSSAPQRLADYLLRQHHIQQTQHLTLPVSRGQLATSLGMRGETLSRLMSDWKRQGHITYRGHQVELCDLNYLKELAAEARRTF` ; wanted: its soluble on expression in E. coli
# output not soluble

---

test: soluble on expression in E. coli; label from the status in PepcDB or PDB records
Measured Property: soluble on expression in E. coli

Answered examples (6):
MVALRGKEIDAFLARPDAGRPIVLLYGPDAGLVRERADALIASAVDDPNDPFSLVRLDGDELSAEPSRLVDEAMTVPLFGGQRAIRVRAGSRSFASGIDTLAEMGVKDCRIVIEAGELRPESPLRKACERAKTAVAIGCYPDTERDLAKLMDDELRIANLRIAQDARAALMSFLGGDRQASRNELRKLTLYAHGKGEITLEDVMAVVADASELKLDPIVDGAFAGRPDIVETEFAKAMIAGTYPGVIISAAQRQAAWLHKSALAIADGQPASAVLDGGFPRLHFSRKPAVETALRNFSVARLAAIIEQLATAALDTRKQSTLAAAIAQRTLMAIAANAKRRGLEHHHHHH    not soluble
MGSDKIHHHHHHMDVIFSIFLETFGDPIGQQPVPPAAVDHYQGKLPNRLLEYWQDHGWCGYGGGLFWLVNPQEYQGVVASWLAGTHFEACDTYHLIARSAFGDLYLWGEKTGSVLTIAAYHSRYLDGAHSSGDEERDNKIHGLLMWLMTECVYFDDLFEPARERLGTLGSDEMYGFVPALMLGGPDSLERLEKLKAVEHLVLLSQLSELEPYELTGEEDE    not soluble
GPPSGKTYMGWWGHMGGPKQKGITSYAVSPYAQKPLQGIFHNAVFNSFRRFKSQFLYVLIPAGIYWYWWKNGNEYNEFLYSKAGREELERVNV    soluble
KGDDTYYIIFTSGTTGKPKGVQISHDNLLSFTNWMINAEAFATPHRPQMLAQPPYSFDLSVMYWAPTLALGGTLFALPKEITADFKQLFTTINQLPIGVWTSTPSFVDMAMLSDDFNAQQLPHLTHFYFDGEELTVKTAKKLRQRFPQARIVNAYGPTEATVALSALAVTDKML    not soluble
MIALHFGAGNIGRGFIGALLHHSGYDVVFADVNETMVSLLNEKKEYTVELAEEGRSSEIIGPVSAINSGSQTEELYRLMNEAALITTAVGPNVLKLIAPSIAEGLRRRNTANTLNIIACENMIGGSSFLKKEIYSHLTEAEQKSVSETLGFPNSAVDRIVPIQHHEDPLKVSVEPFFEWVIDESGFKGKTPVINGALFVDDLTPYIERKLFTVNTGHAVTAYVGYQRGLKTVKEAIDHPEIRRVVHSALLETGDYLVKSYGFKQTEHEQYIKNQRSLLKSFHFGRCDPRSEVTSQKTGRKCRLVGPAKKIKEPNALAEGIAAALRFDFTGDPEAVELQALIEEKDTAAYFK    not soluble
AQYEDGKQYTTLEKPVAGAPQVLEFFSFFCGHAYQFEEVLHISDNVKKKLPEGVKMTKYHVNFMGGDLGKDLTQAWAVAMALGVEDKVTVPLFEGVQKTQTIRSASDIRDVFINAGIKGEEYDAAWNSFVVKSLVAQQEKAAADVQLRGVPAMFVNGKYQLNPQGMDTSNMDVFVQQYADTVKYLSEKK    soluble

# input sequence: `MGHHHHHHSHIVERVIEATLPTKFYGTFRAVGYKTPLGEIVALVKGRVDEGDVLVRIHSECLTGDVFHSLRCDCGDQLENALKMIDREGKGVAIYMRGHEGRGIGLINKLMAYKLQEEGKDTVDANIELGFPPDMRSYGIAAQILMDLKVKSIRLLTNNPLKIEELKKYGFKIVREPIE` ; wanted: its soluble on expression in E. coli
# output soluble

Reference source for all entries: the DeepSol protein solubility set
